# key: entry, value: pIC50
tested on: HT-29 (colorectal carcinoma, B-RafV600E) cells; assay: Cell proliferation (Alamar Blue) assay, HT-29; assay type: cell-based, human; details: HT29 cells
pIC50: −log10 of the molar value.

Please review the entries below; each comes with its answer.
Cc1cnc(NC2CCCOC2)nc1-n1ccc(C(=O)N[C@H](CO)c2cccc(Cl)c2)c1 (stereo partly shown) [Example 152] : 6.60 to 7.00
Cc1cnc(Nc2ccc(F)cc2Cl)nc1-n1ccc(C(=O)N[C@H](CO)c2cccc(Cl)c2)c1 [Example 57] : < 5.60
Cc1cnc(Nc2ccc(F)cc2)cc1-n1cnc(C(=O)NC(CN)c2ccccc2)c1 (single isomer, unassigned; enantiomer #1) [Example 227] : 6.60 to 7.00

Kindly review the next compound as well.
Reported pIC50, compound Cc1cnc(NC2CCCOC2)nc1-n1ccc(C(=O)N[C@H](CO)c2cccc(Cl)c2)c1 (stereo partly shown) [Example 156] : ____
6.30 to 6.60

====

# key: entry, value: pIC50
tested on: HCT116 (colorectal carcinoma, K Ras G13D) cells; experiment: Cell proliferation (Alamar Blue) assay, HCT116; assay type: cell-based, human; conditions: Homo sapiens, HCT-116, HCT116 cells
pIC50: −log10 of the molar value.

Please review the entries below; each comes with its answer.
COc1cc(Nc2ncc(C)c(-n3ccc(C(=O)NC(CO)c4ccccc4)c3)n2)ccc1F (stereo not shown) [Example 154] : 6.60 to 7.00
Cc1cnc(Nc2ccc3c(c2)OC(F)(F)O3)cc1-n1ccc(C(=O)NC(CO)c2cccc(Cl)c2)c1 (stereo not shown) [Example 92] : < 5.60
Cc1cnc(Nc2ccc(F)cc2)cc1-n1ccc(C(=O)NC(CN)c2ccc(F)c(Cl)c2)c1 (stereo not shown) [Example 164] : < 5.60

Reported pIC50, compound Cc1cnc(Nc2ccc(F)cc2)nc1-n1cnc(C(=O)NC(CO)c2ccccc2)c1 (stereo not shown) [Example 118] : ____
5.60 to 6.30

====

tested on: HCT116 (colorectal carcinoma, K Ras G13D) cells; experiment: Cell proliferation (Alamar Blue) assay, HCT116; assay type: cell-based, human; settings: Homo sapiens, HCT-116, HCT116 cells
# key: entry, value: IC50

Please review the entries below; each comes with its answer.
CC[C@H](CO)Nc1cc(-n2cnc(C(=O)NC(CO)c3cccc(Cl)c3)c2)c(Cl)cn1 (stereo partly shown) : > 2500 nM
Cc1cnc(Nc2ccc3c(c2)OCC3)nc1-n1ccc(C(=O)NC(CO)c2ccccc2)c1 (stereo not shown) : 250 to 500 nM
Cc1cnc(NC2CCOCC2)nc1-n1cnc(C(=O)NC(CO)c2cccs2)c1 (stereo not shown) : > 2500 nM

Kindly review the next compound as well.
Reported IC50, compound Cc1cnc(Nc2ccc(F)cc2)cc1-n1cnc(C(=O)NC(CN)c2ccc(F)cc2)c1 (stereo not shown) : ____
> 2500 nM

====

test system: HCT116 (colorectal carcinoma, K Ras G13D) cells; assay: Cell proliferation (Alamar Blue) assay, HCT116; assay type: cell-based, human; details: Homo sapiens, HCT-116, HCT116 cells
pIC50: −log10 of the molar value.
Recorded Metric: pIC50

Please review the entries below; each comes with its answer.
O=C(NC(CO)c1cccc(Cl)c1)c1cn(-c2ccnc(Nc3ccccc3)c2)cn1 (stereo not shown) [Cmpd 77] : < 5.60
Cc1cnc(Nc2ccc(F)cc2Cl)nc1-n1ccc(C(=O)NC(CN)c2cccc(Cl)c2)c1 (stereo not shown) [Example 169] : 5.60 to 6.30

Reported pIC50, compound Cc1cnc(Nc2ccc(N3CCNCC3)cc2)nc1-n1ccc(C(=O)NC(CO)c2ccccc2)c1 (stereo not shown) [Example 73] : ____
5.60 to 6.30

Reported pIC50, compound Cc1cnc(Nc2ccc(Oc3ccccc3)cc2)nc1-n1cnc(C(=O)N[C@H](CO)c2cccc(Cl)c2)c1 (stereo in doubt) [Example 250] : ____
< 5.60
